Target: Factor Xa from bovine plasma (Bos taurus, UniProt P00743)
Construct: Factor Xa from bovine plasma; purchased Chromogenix; host or cells: bovine plasma
Sequence (P00743 41-180): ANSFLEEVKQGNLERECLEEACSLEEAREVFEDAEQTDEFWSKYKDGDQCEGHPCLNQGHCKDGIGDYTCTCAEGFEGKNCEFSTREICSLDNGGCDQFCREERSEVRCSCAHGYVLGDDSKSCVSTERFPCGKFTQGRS
Sequence (P00743 234-492): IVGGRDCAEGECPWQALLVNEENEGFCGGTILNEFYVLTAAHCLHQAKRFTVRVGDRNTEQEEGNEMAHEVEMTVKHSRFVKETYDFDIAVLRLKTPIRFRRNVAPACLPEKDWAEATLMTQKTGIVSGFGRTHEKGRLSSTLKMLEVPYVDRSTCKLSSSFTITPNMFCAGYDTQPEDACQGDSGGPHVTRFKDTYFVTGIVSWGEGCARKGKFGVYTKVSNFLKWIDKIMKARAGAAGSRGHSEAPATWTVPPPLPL
Test: Enzyme amidolytic assay, factor Xa inhibition (chromogenic substrate S-2222)
Type: biochemical
Conditions: Ki Factor Xa, S-2222 substrate, 25 °C, Cheng and Prusoff
# reported Ki; entries follow
REPORTED_ENDPOINT: Ki (µM)

COMPOUND	REPORTED_ENDPOINT	VALUE_MEASURED
N=C(N)NCCC[C@@H](CO)NC(=O)[C@@H]1Cc2ccccc2N1C(=O)[C@@H](CCc1ccccc1)NC(=O)[C@H](O)Cc1ccccc1 (single isomer, unassigned) [Compound 11j]	Ki	41
COC(=O)[C@H](CCCNC(=N)N)NC(=O)[C@@H]1Cc2ccccc2N1C(=O)[C@@H](Cc1ccccc1)NC(=O)[C@H](O)Cc1ccccc1 (single isomer, unassigned) [Compound 11g]	Ki	47
COC(=O)[C@H](CCCNC(=N)N)NC(=O)[C@H]1Cc2ccccc2N1C(=O)[C@@H](Cc1ccccc1)NC(=O)[C@H](O)Cc1ccccc1 (single isomer, unassigned) [Compound 11a]	Ki	49
N=C(N)NCCC[C@@H](CO)NC(=O)[C@H]1Cc2ccccc2N1C(=O)[C@@H](CCc1ccccc1)NC(=O)[C@H](O)Cc1ccccc1 (single isomer, unassigned) [Compound 11d]	Ki	47

###

// Trypsin from bovine pancreas (Bos taurus, UniProt P00760) Ki records
Square brackets hold non-standard residues; d marks the D form. Peptide text beside a SMILES is read from it. d(hPhe) = N[C@H](CCc1ccccc1)C(=O)O; dPhLac = O=C(O)[C@H](O)Cc1ccccc1

COMPOUND	UNIT_SPEC	Ki
N=C(N)NCCCC(CO)NC(=O)C1Cc2ccccc2N1C(=O)C(CCc1ccccc1)NC(=O)C(O)Cc1ccc(O)cc1 (stereo not shown) [Compound 11f]	µM	14
COC(=O)C(CCCNC(=N)N)NC(=O)C1Cc2ccccc2N1C(=O)C(CCc1ccccc1)NC(=O)C(O)Cc1ccc(O)cc1 (mixture of isomers) [Compound 11k]	µM	72
COC(=O)[C@H](CCCNC(=N)N)NC(=O)[C@@H]1Cc2ccccc2N1C(=O)[C@@H](CC(C)C)NC(=O)[C@H](O)Cc1ccccc1 (single isomer, unassigned) [Compound 29a]	µM	4.8
N=C(N)NCCC[C@@H](CO)NC(=O)[C@@H]1Cc2ccccc2N1C(=O)[C@@H](CCc1ccccc1)NC(=O)[C@@H](O)Cc1ccc(O)cc1 (mixture of isomers) [Compound 11l]	µM	62
N=C(N)NCCC[C@@H](CO)NC(=O)[C@H]1Cc2ccccc2N1C(=O)[C@@H](Cc1ccccc1)NC(=O)[C@H](O)Cc1ccccc1 (single isomer, unassigned) [Compound 11c]	µM	54
COC(=O)[C@H](CCCNC(=N)N)NC(=O)[C@H]1Cc2ccccc2N1C(=O)[C@@H](Cc1ccccc1)NC(=O)[C@H](O)Cc1ccccc1 (single isomer, unassigned) [Compound 11a]	µM	7.9
COC(=O)[C@@H](CCCNC(=N)N)NC(=O)[C@H]1CCCN1C(=O)[C@@H](CCc1ccccc1)NC(=O)[C@H](O)Cc1ccccc1 [Compound 21a] (H-[dPhLac][d(hPhe)][dP][dR]-OMe)	µM	1.4

###

Molecular target: Factor Xa from bovine plasma (Bos taurus)
Construct: Factor Xa from bovine plasma; purchased Chromogenix; host or cells: bovine plasma
Assay: Enzyme amidolytic assay, factor Xa inhibition (chromogenic substrate S-2222)
Format: biochemical
Settings: S-2222 substrate, 25 °C, Cheng and Prusoff; read-out: Ki Factor Xa
pKi: −log10 of the molar value.

MOLECULE	pKi
COC(=O)C(CCCNC(=N)N)NC(=O)C1Cc2ccccc2N1C(=O)C(CCc1ccccc1)NC(=O)C(O)Cc1ccc(O)cc1 (mixture of isomers) [Compound 11k]	4.24
N=C(N)NCCC[C@H](NC(=O)[C@H]1Cc2ccccc2N1C(=O)[C@@H](Cc1ccccc1)NC(=O)[C@H](O)Cc1ccccc1)C(=O)O (single isomer, unassigned) [Compound 12g]	4.16
COC(=O)[C@H](CCCNC(=N)N)NC(=O)[C@@H]1Cc2ccccc2N1C(=O)[C@@H](CC(C)C)NC(=O)[C@H](O)Cc1ccccc1 (single isomer, unassigned) [Compound 29a]	4.52
N=C(N)NCCC[C@@H](CO)NC(=O)[C@H]1Cc2ccccc2N1C(=O)[C@@H](Cc1ccccc1)NC(=O)[C@H](O)Cc1ccccc1 (single isomer, unassigned) [Compound 11c]	4.27
COC(=O)[C@H](CCCNC(=N)N)NC(=O)[C@@H]1Cc2ccccc2N1C(=O)[C@@H](CCc1ccccc1)NC(=O)[C@H](O)Cc1ccccc1 (single isomer, unassigned) [Compound 11h]	4.46

###

Biological target: Thrombin from human plasma (Homo sapiens)
Construct: Thrombin from human plasma
Experiment: Enzyme amidolytic assay, thrombin inhibition (chromogenic substrate S-2238)
Settings: Ki Thrombin, S-2238 substrate, 25 °C, Cheng and Prusoff
pKi: −log10 of the molar value. Square brackets hold non-standard residues; d marks the D form. Peptide text beside a SMILES is read from it. d(hPhe) = N[C@H](CCc1ccccc1)C(=O)O; dPhLac = O=C(O)[C@H](O)Cc1ccccc1
Output 1.0 for pKi not less than 5; output 0.0 otherwise.

MOLECULE	TARGET_ENTITY	CAT
N=C(N)NCCCC(CO)NC(=O)C1Cc2ccccc2N1C(=O)C(CCc1ccccc1)NC(=O)C(O)Cc1ccc(O)cc1 (stereo not shown) [Compound 11f]	Thrombin from human plasma (Homo sapiens)	0.0
COC(=O)[C@H](CCCNC(=N)N)NC(=O)[C@H]1Cc2ccccc2N1C(=O)[C@@H](CC(C)C)NC(=O)[C@H](O)Cc1ccccc1 (single isomer, unassigned) [Compound 29b]	Thrombin from human plasma (Homo sapiens)	0.0
N=C(N)NCCC[C@@H](CO)NC(=O)[C@@H]1Cc2ccccc2N1C(=O)[C@@H](CCc1ccccc1)NC(=O)[C@H](O)Cc1ccccc1 (single isomer, unassigned) [Compound 11j]	Thrombin from human plasma (Homo sapiens)	0.0
N=C(N)NCCC[C@H](NC(=O)[C@H]1Cc2ccccc2N1C(=O)[C@@H](Cc1ccccc1)NC(=O)[C@H](O)Cc1ccccc1)C(=O)O (single isomer, unassigned) [Compound 12g]	Thrombin from human plasma (Homo sapiens)	0.0
COC(=O)[C@H](CCCNC(=N)N)NC(=O)[C@@H]1Cc2ccccc2N1C(=O)[C@@H](CCc1ccccc1)NC(=O)[C@H](O)Cc1ccccc1 (single isomer, unassigned) [Compound 11h]	Thrombin from human plasma (Homo sapiens)	0.0
COC(=O)C(CCCNC(=N)N)NC(=O)C1CCCN1C(=O)C(CCc1ccccc1)NC(=O)C(O)Cc1ccc(O)cc1 (stereo not shown) [Compound 21b]	Thrombin from human plasma (Homo sapiens)	1.0
COC(=O)[C@@H](CCCNC(=N)N)NC(=O)[C@H]1CCCN1C(=O)[C@@H](CCc1ccccc1)NC(=O)[C@H](O)Cc1ccccc1 [Compound 21a] (H-[dPhLac][d(hPhe)][dP][dR]-OMe)	Thrombin from human plasma (Homo sapiens)	1.0

###

Molecular target: Thrombin from human plasma (Homo sapiens)
Construct: Thrombin from human plasma
Assay: Enzyme amidolytic assay, thrombin inhibition (chromogenic substrate S-2238)
Procedure: The enzyme amidolytic method for determining inhibition was based on the spectrophotometric determination of absorbance of the product formed after amide bond cleavage of a chromogenic substrate in the presence of the enzyme. Ki, which is a quantitative measure of inhibitor potency, was determined from the kinetics of substrate hydrolysis with and without the addition of the inhibitor. […] Reaction rates were measured in the presence and the absence of the inhibitor. […]
pIC50: −log10 of the molar value. Square brackets hold non-standard residues; d marks the D form. Peptide text beside a SMILES is read from it. d(hPhe) = N[C@H](CCc1ccccc1)C(=O)O; dPhLac = O=C(O)[C@H](O)Cc1ccccc1
REPORTED_ENDPOINT: pIC50

COMPOUND	VALUE_MEASURED
COC(=O)[C@@H](CCCNC(=N)N)NC(=O)[C@H]1CCCN1C(=O)[C@@H](CCc1ccccc1)NC(=O)[C@H](O)Cc1ccccc1 [Compound 21a] (H-[dPhLac][d(hPhe)][dP][dR]-OMe)	4.48

###

Molecular target: Thrombin from human plasma (Homo sapiens, UniProt P00734)
Construct: Thrombin from human plasma; purchased Sigma; host or cells: human plasma
Assay: Enzyme amidolytic assay, thrombin inhibition (chromogenic substrate S-2238)
Type: biochemical
Details: Ki Thrombin, S-2238 substrate, 25 °C, Cheng and Prusoff
Protocol: The enzyme amidolytic method for determining inhibition was based on the spectrophotometric determination of absorbance of the product formed after amide bond cleavage of a chromogenic substrate in the presence of the enzyme. Ki, which is a quantitative measure of inhibitor potency, was determined from the kinetics of substrate hydrolysis with and without the addition of the inhibitor. […] Reaction rates were measured in the presence and the absence of the inhibitor. […]
REPORTED_ENDPOINT: log10(Ki) (log10 of the value in µM)

COMPOUND	log10(Ki)
COC(=O)[C@H](CCCNC(=N)N)NC(=O)[C@H]1Cc2ccccc2N1C(=O)[C@@H](Cc1ccccc1)NC(=O)[C@H](O)Cc1ccccc1 (single isomer, unassigned) [Compound 11a]	1.72
COC(=O)[C@H](CCCNC(=N)N)NC(=O)[C@H]1Cc2ccccc2N1C(=O)[C@@H](CCc1ccccc1)NC(=O)[C@H](O)Cc1ccccc1 (single isomer, unassigned) [Compound 11b]	1.64
N=C(N)NCCC[C@@H](CO)NC(=O)[C@@H]1Cc2ccccc2N1C(=O)[C@@H](CCc1ccccc1)NC(=O)[C@@H](O)Cc1ccc(O)cc1 (mixture of isomers) [Compound 11l]	2.27
N=C(N)NCCC[C@@H](CO)NC(=O)[C@H]1Cc2ccccc2N1C(=O)[C@@H](Cc1ccccc1)NC(=O)[C@H](O)Cc1ccccc1 (single isomer, unassigned) [Compound 11c]	1.96
COC(=O)[C@H](CCCNC(=N)N)NC(=O)[C@@H]1Cc2ccccc2N1C(=O)[C@@H](CC(C)C)NC(=O)[C@H](O)Cc1ccccc1 (single isomer, unassigned) [Compound 29a]	0.75
